test system: ACHN renal; assay: NCI-60 one-dose screen, 48 h; conditions: 10 µM unless noted
This is part of a sample that, as a whole, favours compounds with a hit. Of some 83,000 tested, about 20% had one in any assay. Activity calls are given as the source filed them. How the source made its calls: active means growth percent below 10; inactive means the rest.
Outcome codes: yes (1) (active), no (0) (inactive)

[
  {
    "compound": "N#CCCN=Nc1c(O)[nH]c2ccc(F)cc12",
    "system tested": "ACHN renal",
    "cat": "no (0)"
  },
  {
    "compound": "COc1ccc(-c2nc3ccc(-c4nc5ccc(N6CCN(c7ccncc7)CC6)cc5[nH]4)cc3[nH]2)cc1OC",
    "system tested": "ACHN renal",
    "cat": "no (0)"
  },
  {
    "compound": "FC(F)(F)Oc1ccc2nc3nc4ccc[nH]c4cc3c2c1",
    "system tested": "ACHN renal",
    "cat": "no (0)"
  },
  {
    "compound": "O=C1C=C(OCC=C(Cl)Cl)C(=O)c2ccccc21",
    "system tested": "ACHN renal",
    "cat": "no (0)"
  },
  {
    "compound": "COc1ccc(C2CC(c3ccc(Cl)cc3)=NN2/C=C2\\SC(=S)N(NC(=O)Cc3ccccc3Nc3c(Cl)cccc3Cl)C2=O)cc1 (centres undefined)",
    "system tested": "ACHN renal",
    "cat": "yes (1)"
  },
  {
    "compound": "O=C1Nc2cc(-c3ccc(O)cc3)ccc2/C1=C/c1ccc[nH]1",
    "system tested": "ACHN renal",
    "cat": "yes (1)"
  },
  {
    "compound": "CC[N+](CC)=c1sc2c(s1)C(c1ccc(Cl)cc1)Oc1ccc(Cl)cc1-2 (centres undefined)",
    "system tested": "ACHN renal",
    "cat": "no (0)"
  },
  {
    "compound": "COc1cc(/C=C/c2cc(/C=C/c3ccc(O)c(OC)c3)n(-c3c(Cl)cccc3Cl)c(=O)n2)ccc1O",
    "system tested": "ACHN renal",
    "cat": "no (0)"
  },
  {
    "compound": "CN(C)[C@@H]1C(=O)C(C(=O)NCc2nc3[nH]cnc(=S)c3[nH]2)=C(O)[C@@]2(O)C(=O)C3=C(O)c4c(O)cccc4[C@@](C)(O)[C@H]3C[C@@H]12",
    "system tested": "ACHN renal",
    "cat": "no (0)"
  }
]
